Taken from patent EP1147080B1.

target_under_test: MMP-9 (Homo sapiens)
Sequence (P14780 94-707): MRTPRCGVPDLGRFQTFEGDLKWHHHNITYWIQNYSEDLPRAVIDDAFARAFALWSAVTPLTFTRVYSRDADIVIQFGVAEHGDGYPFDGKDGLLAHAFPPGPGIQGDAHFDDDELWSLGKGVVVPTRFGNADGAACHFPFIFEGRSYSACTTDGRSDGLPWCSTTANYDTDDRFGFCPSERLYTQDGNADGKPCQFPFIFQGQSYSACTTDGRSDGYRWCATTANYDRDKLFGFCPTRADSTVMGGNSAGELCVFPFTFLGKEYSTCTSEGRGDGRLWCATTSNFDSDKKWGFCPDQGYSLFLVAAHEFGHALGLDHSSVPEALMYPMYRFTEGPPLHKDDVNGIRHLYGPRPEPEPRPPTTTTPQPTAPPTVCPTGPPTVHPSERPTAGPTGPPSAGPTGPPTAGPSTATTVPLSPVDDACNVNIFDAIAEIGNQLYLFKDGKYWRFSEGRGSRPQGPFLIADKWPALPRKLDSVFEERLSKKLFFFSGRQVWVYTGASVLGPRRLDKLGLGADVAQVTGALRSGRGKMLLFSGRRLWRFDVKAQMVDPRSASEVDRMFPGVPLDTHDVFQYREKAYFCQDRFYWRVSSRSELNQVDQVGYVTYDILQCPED
method_summary: MMP-9 inhibition (thiopeptide or fluorescent peptide substrate)
measurement_setup: read-out: MMP9
property_measured: inhibition at 10 µM (%)

[a] CC#CCOc1ccc(S(=O)(=O)C(C(=O)NO)c2ccc(Cl)cc2)cc1 (centres unmarked)
[b] CC#CCOc1ccc(SC(C(=O)NO)C(C)C)cc1 (centres unmarked)
[c] CC#CCOc1ccc(SC(C(=O)NO)c2ccccc2)cc1 (centres unmarked)
[d] CC#CCOc1ccc(SC(C(=O)NO)c2ccc(OC)cc2)cc1 (centres unmarked)
Task: Place the item with the largest inhibition at 10 µM first, then continue in falling order, using the list above. Please express your ranking as an ordered list of the labels.
Output: b, a, d, c
(b: 56.8%, a: 38%, d: 21.6%, c: 13.5%)

====

target_under_test: MMP-9 (Homo sapiens)
method_summary: MMP-9 inhibition (thiopeptide or fluorescent peptide substrate)
measurement_setup: read-out: MMP9
property_measured: inhibition at 10 µM (%)

INSERT INTO measurements (compound, value_unit, meas_value) VALUES
  ('CC#CCOc1ccc(SC(C(=O)NO)c2ccc(Cl)cc2)cc1 (centres unmarked)', '%', 10.9),
  ('CC#CCOc1ccc(S(=O)(=O)C(C(=O)NO)C2CCCCC2)cc1 (centres unmarked)', '%', 68.2),
  ('CC#CCOc1ccc([S+]([O-])[C@H](C(=O)NO)c2ccc(OC)cc2)cc1 (single isomer, unassigned)', '%', 32.7);

[I] CC#CCOc1ccc(S(=O)(=O)C(C(=O)NO)c2ccc(F)cc2)cc1 (centres unmarked)
[II] CC#CCOc1ccc([S+]([O-])[C@@H](C(=O)NO)c2ccccc2)cc1 (some centres unmarked)
Task: Look at I and II . Which one has the lower recorded inhibition at 10 µM number? The response must carry the label of the picked entry.
Output: I
(I: 0.5%, II: 8.2%)

====

target_under_test: MMP-13 (Homo sapiens)
method_summary: MMP-13 inhibition (thiopeptide or fluorescent peptide substrate)
Assay type: biochemical
measurement_setup: IC50; read-out: MMP13
pIC50: −log10 of the molar value.
property_measured: pIC50

INSERT INTO results (molecule, target_under_test, meas_value) VALUES
  ('CC#CCOc1ccc(S(=O)(=O)C(C(=O)NO)C2CCCCC2)cc1 (stereo not drawn)', 'MMP-13 (Homo sapiens)', 6.15),
  ('CC#CCOc1ccc(S(=O)(=O)C(C(=O)NO)C(C)C)cc1 (stereo not drawn)', 'MMP-13 (Homo sapiens)', 5.90),
  ('CC#CCOc1ccc(S(=O)(=O)C(CCCCCC#N)C(=O)NO)cc1 (stereo not drawn)', 'MMP-13 (Homo sapiens)', 6.47),
  ('CC#CCOc1ccc(S(=O)(=O)C(C(=O)NO)c2ccc(Cl)cc2)cc1 (stereo not drawn)', 'MMP-13 (Homo sapiens)', 5.30);

[a] CC#CCOc1ccc(S(=O)(=O)C(CCc2ccc(OCCN3CCCCC3)cc2)C(=O)NO)cc1 (stereo not drawn)
[b] CC#CCOc1ccc([S+]([O-])C(C(=O)NO)C2CCCCC2)cc1 (stereo not drawn)
Task: Between these two entries, a and b , state which has the higher pIC50. The response must carry the label of the picked entry.
Output: b
(b: 7.03, a: 6.05)

====

target_under_test: TNF-α converting enzyme (TACE) (Homo sapiens, UniProt P78536)
Sequence (P78536 215-824): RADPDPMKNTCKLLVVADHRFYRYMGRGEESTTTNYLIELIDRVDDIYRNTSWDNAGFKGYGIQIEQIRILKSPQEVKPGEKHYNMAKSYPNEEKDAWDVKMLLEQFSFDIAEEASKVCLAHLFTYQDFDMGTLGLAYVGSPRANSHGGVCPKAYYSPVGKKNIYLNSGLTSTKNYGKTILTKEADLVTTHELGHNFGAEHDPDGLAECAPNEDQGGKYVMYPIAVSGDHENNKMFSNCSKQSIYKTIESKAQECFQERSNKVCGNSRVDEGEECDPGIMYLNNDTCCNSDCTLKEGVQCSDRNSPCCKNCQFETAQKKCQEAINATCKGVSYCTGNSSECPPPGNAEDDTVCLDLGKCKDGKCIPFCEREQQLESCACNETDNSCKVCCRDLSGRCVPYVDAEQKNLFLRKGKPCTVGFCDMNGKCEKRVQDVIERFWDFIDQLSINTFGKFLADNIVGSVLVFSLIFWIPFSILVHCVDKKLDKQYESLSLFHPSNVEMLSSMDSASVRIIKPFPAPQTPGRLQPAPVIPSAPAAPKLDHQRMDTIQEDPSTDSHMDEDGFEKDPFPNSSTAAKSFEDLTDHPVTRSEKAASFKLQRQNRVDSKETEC
method_summary: Test procedure for measuring TACE inhibition (fluorescent peptidyl substrate)
Format: biochemical
measurement_setup: Table 1
property_measured: IC50 (nM)

[A] CC#CCOc1ccc([S+]([O-])C(CCCCNC(=O)c2cnc3ccccc3c2)C(=O)NO)cc1 (stereo not shown)
[B] CC#CCOc1ccc(SC(CCCCNC(=O)c2nccc3ccccc23)C(=O)NO)cc1 (stereo not shown)
Task: Between these two entries, A and B , state which has the higher IC50. The response must carry the label of the picked entry.
Output: A
